Test: Chiral plasma pharmacokinetics of MDMA and its phase I and II metabolites after controlled MDMA administration
Format: in vivo, human
Details: both sexes, human, plasma, oral, bupropion+MDMA (125 mg), CYP2D6 EM (EM/Bup), n=13, plasma; read-out: tmax S
Protocol: Blood plasma samples were analyzed non-stereoselectively as reported previously and reanalyzed for the present report using liquid chromatography-mass spectrometry/mass spectrometry after chiral derivatization with Marfey’s reagent as described previously. The method was fully validated, including selectivity, recovery, matrix effects, bias and imprecision, stability, and limit of quantification.
Where a name gives a salt, the structure may show the parent alone.
Listed below: Tmax values for each entry.
Report the value in h with no unit label.

Solved cases below.
molecule="CN[C@@H](C)Cc1ccc(O)c(OS(=O)(=O)O)c1 [S-DHMA 3-sulfate]" quantity_name=Tmax units=h experimental_value=2.4
molecule="CN[C@@H](C)Cc1ccc(OS(=O)(=O)O)c(O)c1 [S-DHMA 4-sulfate]" quantity_name=Tmax units=h experimental_value=2.4
molecule="CN[C@@H](C)Cc1ccc2c(c1)OCO2 [S-MDMA, 3,4-methylenedioxymethamphetamine]" quantity_name=Tmax units=h experimental_value=2.5
molecule="CC(N)Cc1ccc2c(c1)OCO2 (stereo not drawn) [S-MDA, 3,4-methylenedioxyamphetamine]" quantity_name=Tmax units=h experimental_value=5.2
molecule="CNC(C)Cc1ccc(OC2OC(C(=O)O)C(O)C(O)C2O)c(OC)c1 (stereo not drawn) [S-HMMA glucuronide]" quantity_name=Tmax units=h experimental_value=4.9

## Task # return recorded Tmax for entry CN[C@@H](C)Cc1ccc(OS(=O)(=O)O)c(OC)c1 [S-HMMA sulfate]
## Result 2.8

----------
Form field: tonset (time of first detection), mean (one value per entry).
test: Chiral plasma pharmacokinetics of MDMA and its phase I and II metabolites after controlled MDMA administration; type: in vivo, human; settings: placebo-pretreated CYP2D6 EMs
Where a name gives a salt, the structure may show the parent alone.
The reply should contain only the number, in h.

compound="CNC(C)Cc1ccc(OC2OC(C(=O)O)C(O)C(O)C2O)c(OC)c1 (stereo not shown) [S-HMMA glucuronide]" experimental_value=0.38
compound="CNC(C)Cc1ccc(OC2OC(C(=O)O)C(O)C(O)C2O)c(OC)c1 (stereo not shown) [R-HMMA glucuronide]" experimental_value=0.41
compound="CN[C@H](C)Cc1ccc(OS(=O)(=O)O)c(OC)c1 [R-HMMA sulfate]" experimental_value=0.33

--- query ---
## Task Item CN[C@@H](C)Cc1ccc(OS(=O)(=O)O)c(OC)c1 [S-HMMA sulfate] : provide tonset (time of first detection), mean
## Result 0.33

----------
Reported AUCtotal S values for the following compounds.
experiment: Chiral plasma pharmacokinetics of MDMA and its phase I and II metabolites after controlled MDMA administration; type: in vivo, human; conditions: placebo+MDMA (125 mg), CYP2D6 IM, n=3, plasma
Counter-ions that a name gives are not always drawn.

As a guide, the following entries are already answered.
compound="CN[C@@H](C)Cc1ccc(O)c(OS(=O)(=O)O)c1 [S-DHMA 3-sulfate]" experimental_value="3.3 (1.1) μmol/l*h-1"
compound="CN[C@@H](C)Cc1ccc(OS(=O)(=O)O)c(O)c1 [S-DHMA 4-sulfate]" experimental_value="0.59 (0.30) μmol/l*h-1"
compound="CN[C@@H](C)Cc1ccc(OS(=O)(=O)O)c(OC)c1 [S-HMMA sulfate]" experimental_value="1.9 (0.34) μmol/l*h-1"

## Task Report AUCtotal S, nothing else, for this compound: CNC(C)Cc1ccc(OC2OC(C(=O)O)C(O)C(O)C2O)c(OC)c1 (stereo not drawn) [S-HMMA glucuronide]
## Result 1.5 (0.83) μmol/l*h-1

## Task Give reported AUCtotal S value for CN[C@@H](C)Cc1ccc2c(c1)OCO2 [S-MDMA, 3,4-methylenedioxymethamphetamine]
## Result 7.1 (2.0) μmol/l*h-1

## Task Provide one value: measured AUCtotal S of CC(N)Cc1ccc2c(c1)OCO2 (stereo not drawn) [S-MDA, 3,4-methylenedioxyamphetamine]
## Result 0.87 (0.31) μmol/l*h-1

----------
experiment: Chiral plasma pharmacokinetics of MDMA and its phase I and II metabolites after controlled MDMA administration; format: in vivo, human; details: both sexes, human, plasma, oral, 125 mg, placebo+MDMA (125 mg), CYP2D6 EM, n=13, plasma; read-out: AUC0-24h R
Counter-ions that a name gives are not always drawn.
As shown below, each of these compounds has a reported AUC(0-t) value.
Respond numerically; units are µM·h and should not be typed.

In the examples that follow, each entry is paired with its recorded AUC(0-t).
compound="CNC(C)Cc1ccc(OC2OC(C(=O)O)C(O)C(O)C2O)c(OC)c1 (stereo not drawn) [R-HMMA glucuronide]" quantity_name=AUC(0-t) experimental_value=3.3
compound="CN[C@H](C)Cc1ccc(OS(=O)(=O)O)c(OC)c1 [R-HMMA sulfate]" quantity_name=AUC(0-t) experimental_value=5.5
compound="CN[C@H](C)Cc1ccc2c(c1)OCO2 [R-MDMA, 3,4-methylenedioxymethamphetamine]" quantity_name=AUC(0-t) experimental_value=8.7

## Task Please give the documented AUC(0-t) of CN[C@H](C)Cc1ccc(OS(=O)(=O)O)c(O)c1 [R-DHMA 4-sulfate]
## Result 1.3

## Task For the compound CN[C@H](C)Cc1ccc(O)c(OS(=O)(=O)O)c1 [R-DHMA 3-sulfate] , report AUC(0-t).
## Result 2.4

## Task Dear colleague, please send me the reported AUC(0-t) for CC(N)Cc1ccc2c(c1)OCO2 (stereo not drawn) [R-MDA, 3,4-methylenedioxyamphetamine] when you can.
## Result 0.26

----------
assay: Chiral plasma pharmacokinetics of MDMA and its phase I and II metabolites after controlled MDMA administration; format: in vivo, human; conditions: both sexes, human, plasma, oral, 125 mg, placebo+MDMA (125 mg), CYP2D6 EM, n=13, plasma; read-out: tmax S
Where a name gives a salt, the structure may show the parent alone.
Note to self: Tmax under 2 h means met, ties and anything higher get not met.

compound="CN[C@@H](C)Cc1ccc(OS(=O)(=O)O)c(OC)c1 [S-HMMA sulfate]" category_label=met
compound="CN[C@@H](C)Cc1ccc(O)c(OS(=O)(=O)O)c1 [S-DHMA 3-sulfate]" category_label=met
compound="CN[C@@H](C)Cc1ccc(OS(=O)(=O)O)c(O)c1 [S-DHMA 4-sulfate]" category_label=met
compound="CC(N)Cc1ccc2c(c1)OCO2 (stereo not drawn)" category_label="not met"
compound=CN[C@@H](C)Cc1ccc2c(c1)OCO2 category_label="not met"

## Task Strictly below 2 h in Tmax? CNC(C)Cc1ccc(OC2OC(C(=O)O)C(O)C(O)C2O)c(OC)c1 (stereo not drawn) [S-HMMA glucuronide]
## Result not met

----------
experiment: Chiral plasma pharmacokinetics of MDMA and its phase I and II metabolites after controlled MDMA administration; assay type: in vivo, human; settings: bupropion+MDMA (125 mg), CYP2D6 EM (EM/Bup), n=13, plasma
Where a name gives a salt, the structure may show the parent alone.
List of AUCtotal S values.

These recorded examples may help you get a feel for the data.
compound="CC(N)Cc1ccc2c(c1)OCO2 (stereo not drawn)" quantity_name="AUCtotal S" experimental_value="0.69 (0.17) μmol/l*h-1"
compound=CN[C@@H](C)Cc1ccc2c(c1)OCO2 quantity_name="AUCtotal S" experimental_value="7.2 (1.7) μmol/l*h-1"
compound="CNC(C)Cc1ccc(OC2OC(C(=O)O)C(O)C(O)C2O)c(OC)c1 (stereo not drawn) [S-HMMA glucuronide]" quantity_name="AUCtotal S" experimental_value="1.7 (1.0) μmol/l*h-1"
compound="CN[C@@H](C)Cc1ccc(O)c(OS(=O)(=O)O)c1 [S-DHMA 3-sulfate]" quantity_name="AUCtotal S" experimental_value="3.7 (2.1) μmol/l*h-1"
compound="CN[C@@H](C)Cc1ccc(OS(=O)(=O)O)c(OC)c1 [S-HMMA sulfate]" quantity_name="AUCtotal S" experimental_value="2.2 (0.75) μmol/l*h-1"

As a next step, examine the compound that follows.
## Task Output AUCtotal S of CN[C@@H](C)Cc1ccc(OS(=O)(=O)O)c(O)c1 [S-DHMA 4-sulfate]
## Result 0.48 (0.19) μmol/l*h-1

----------
test: Chiral plasma pharmacokinetics of MDMA and its phase I and II metabolites after controlled MDMA administration; assay type: in vivo, human; conditions: bupropion+MDMA vs placebo+MDMA, CYP2D6 EMs; unsigned = increase
Counter-ions that a name gives are not always drawn.
# key: entry, value: change in AUC24 after bupropion pretreatment
Numbers only; they are read as %.

compound="CNC(C)Cc1ccc(OC2OC(C(=O)O)C(O)C(O)C2O)c(OC)c1 (centres unmarked) [S-HMMA glucuronide]" experimental_value=-74

## Task Please report the measured change in AUC24 after bupropion pretreatment for CN[C@H](C)Cc1ccc(OS(=O)(=O)O)c(OC)c1 [R-HMMA sulfate]
## Result -62

## Task Input CN[C@@H](C)Cc1ccc(OS(=O)(=O)O)c(O)c1 [S-DHMA 4-sulfate] , output reported change in AUC24 after bupropion pretreatment.
## Result -50

## Task Provide one value: measured change in AUC24 after bupropion pretreatment of CN[C@H](C)Cc1ccc(OS(=O)(=O)O)c(O)c1 [R-DHMA 4-sulfate]
## Result -43

## Task Give the reported value of change in AUC24 after bupropion pretreatment for this record: CC(N)Cc1ccc2c(c1)OCO2 (centres unmarked) [R-MDA, 3,4-methylenedioxyamphetamine]
## Result -26
